- method: Inhibition of RANKL-induced C57BL/6 mouse bone marrow monocytes differentiation into osteoclasts at 0.1 uM after 6 days in presence of M-CSF by tartrate-resistant acid phosphatase staining based assay relative to control
- Assay type: functional
- assay_setup: C57BL/6, Bone marrow monocyte, 144 h
Decision: inhibition at 0.1 µM compared against 60%; not below it gives 1 (yes), below it gives 0 (no).

Below are worked cases with known answers.
>>> assigned_category("COc1cc2c(cc1C(C)=O)CC[C@H]1C(C)(C)c3oc(C)nc3C[C@]21C")
"0 (no)"
>>> assigned_category("COc1cc2c(cc1C(N)=O)CC[C@H]1C(C)(C)c3oc(C)nc3C[C@]21C")
"0 (no)"
>>> assigned_category("CNC(=O)c1cc2c(cc1O)[C@@]1(C)Cc3nc(C)oc3C(C)(C)[C@@H]1CC2")
"1 (yes)"
>>> assigned_category("CCC(=O)c1cc2c(cc1OC)[C@@]1(C)Cc3nc(C)oc3C(C)(C)[C@@H]1CC2")
"0 (no)"

Below: the item to evaluate.
Does CNC(=O)c1cc2c(cc1OC)[C@@]1(C)Cc3nc(C)oc3C(C)(C)[C@@H]1CC2 have a reported inhibition at 0.1 µM of at least 60%?
1 (yes)

---

- method: Inhibition of RANKL-induced C57BL/6 mouse bone marrow monocytes differentiation into osteoclasts at 0.1 uM after 6 days in presence of M-CSF by tartrate-resistant acid phosphatase staining based assay relative to control
- Assay type: functional
- assay_setup: C57BL/6, Bone marrow monocyte, 144 h
Consider the following partition of reported inhibition at 0.1 µM into named classes: low bin (below 30%), mid bin (30% to below 40%), high bin (40% or more)

>>> assigned_category("COc1cc2c(cc1C(=O)O)CC[C@H]1C(C)(C)c3oc(C)nc3C[C@]21C")
"low bin"

Assign a category based on measured inhibition at 0.1 µM for COc1cc2c(cc1C(=O)N(C)C)CC[C@H]1C(C)(C)c3oc(C)nc3C[C@]21C and give only the class name.
high bin

Assign a category based on measured inhibition at 0.1 µM for COc1ccc2c(c1)[C@@]1(C)Cc3nc(C)oc3C(C)(C)[C@@H]1CC2 and give only the class name.
high bin

---

- method: Cytotoxicity against C57BL/6 mouse bone marrow monocytes assessed as reduction in cell viability after 72 hrs in presence of M-CSF by MTS assay
- Type: cell-based
- assay_setup: C57BL/6, Bone marrow monocyte
readout_kind: IC50 (µM)
Provide the reading as a plain figure in µM.

Given item CNC(=O)c1cc2c(cc1OC)[C@@]1(C)Cc3nc(C)oc3C(C)(C)[C@@H]1CC2 , the value recorded as its IC50 is 88.3

---

- method: Inhibition of RANKL-induced C57BL/6 mouse bone marrow monocytes differentiation into osteoclasts at 0.1 uM after 6 days in presence of M-CSF by tartrate-resistant acid phosphatase staining based assay relative to control
- Assay type: functional
- assay_setup: C57BL/6, Bone marrow monocyte, 144 h
Decision: inhibition at 0.1 µM compared against 30%; not below it gives label 1, below it gives label 0.

Below are worked cases with known answers.
>>> assigned_category("COc1cc2c(cc1/C(C)=N/O)CC[C@H]1C(C)(C)c3oc(C)nc3C[C@]21C")
"label 0"
>>> assigned_category("CCCCNC(=O)c1cc2c(cc1OC)[C@@]1(C)Cc3nc(C)oc3C(C)(C)[C@@H]1CC2")
"label 1"
>>> assigned_category("COc1cc2c(cc1NC(C)=O)CC[C@H]1C(C)(C)c3oc(C)nc3C[C@]21C")
"label 0"
>>> assigned_category("COc1cc2c(cc1N)CC[C@H]1C(C)(C)c3oc(C)nc3C[C@]21C")
"label 0"
>>> assigned_category("CCCNC(=O)c1cc2c(cc1OC)[C@@]1(C)Cc3nc(C)oc3C(C)(C)[C@@H]1CC2")
"label 1"

Below: the item to evaluate.
Does CCNC(=O)c1cc2c(cc1OC)[C@@]1(C)Cc3nc(C)oc3C(C)(C)[C@@H]1CC2 have a reported inhibition at 0.1 µM of at least 30%?
label 1
